B1: Homeobox protein cut-like 2, residues 895 to 963; numbered along this chain, O14529 (parent)
chain: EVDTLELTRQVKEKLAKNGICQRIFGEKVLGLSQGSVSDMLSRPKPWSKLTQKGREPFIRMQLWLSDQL

Variants of: B1
Run Description: abundance fitness (aPCA) (normalised: wild type 0, dead -1); higher = more abundant; growth selection in yeast, the domain comes from the species named
Measurement Parameters: Homo sapiens
Readout Kind: abundance fitness
One number for each entry.

Sample answers from the record:
Mut: S66E
abundance fitness: -0.069
--
Mut: L32C
abundance fitness: -0.136

# per-item lookup of abundance fitness; items listed below
1. P57G
2. R9P
3. Q52Y

-0.456
-0.137
-0.073

Report abundance fitness for every entry below.
1. F58V
2. V29P
3. R55G
4. E6T
5. K17A

1: -0.662; 2: -0.345; 3: -0.674; 4: -0.129; 5: -0.086

For every listed record, write down its abundance fitness.
1. F25R
2. G31E
3. M40R
4. I24H
5. K14P

1: -0.568; 2: -0.48; 3: -0.145; 4: 0.007; 5: -0.208

Give abundance fitness for all variants that follow.
1. K45M
2. R60C

1. -0.053
2. -0.681
